experiment: Half life in dog; type: ADME, organism-based, Canis lupus familiaris; details: in vivo
measurement.name: half-life

Would you kindly share the measured half-life for [O-][n+]1ccc(CC(c2ccc(C(O)(C(F)(F)F)C(F)(F)F)cc2)c2ccc(OC(F)F)c(OC(F)F)c2)cc1 (stereo unspecified) ?
> 2880 min

----------
assay: Inhibition of PDE3
measurement.name: IC50 (µM)
Give the number; µM is assumed, so skip it.

Which IC50 value belongs to `CNc1nc(C(F)(F)F)nc2c1ncn2Cc1ccccc1F` ?
380

----------
experiment: Oral bioavailability in rat at 3 mg/kg after 6 hrs; assay type: ADME, organism-based; conditions: in vivo
measurement.name: bioavailability (%)
Dear colleague, please return just the value in %, with no unit written.

What value of bioavailability has been recorded for this entry: Cc1c[n+]([O-])ccc1CC(c1ccc(C(O)(C(F)(F)F)C(F)(F)F)cc1)c1ccc(OC(F)F)c(OC(F)F)c1 (stereo unspecified)
60
